meta.source: patent US10639287B2

Test: Maximum solubility in yeast culture
Format: physicochemical
Details: 28 °C; in YPD yeast culture; read-out: maximum concentration (maximum solubility)
observable: solubility (µM)
Give the number; µM is assumed, so skip it.

Query :: Request the reported solubility associated with CCCCCCC[N+](CC)(CC)CCCCc1ccc(Cl)cc1.Cc1ccc(S(=O)(=O)[O-])cc1 [clofilium tosylate]
Result :: 512
